- experimental-system: T1, human LTBP1-proTGFβ1 complex (human, UniProt Q14766 873-1507)
- T1 construct: range 873-1507; biotinylated in Octet and MSD-SET; also called hLTBP1-proTGFβ1; hLTBP1
- T1 sequence (Q14766 873-1507 limits assumed, chain 1 of 2): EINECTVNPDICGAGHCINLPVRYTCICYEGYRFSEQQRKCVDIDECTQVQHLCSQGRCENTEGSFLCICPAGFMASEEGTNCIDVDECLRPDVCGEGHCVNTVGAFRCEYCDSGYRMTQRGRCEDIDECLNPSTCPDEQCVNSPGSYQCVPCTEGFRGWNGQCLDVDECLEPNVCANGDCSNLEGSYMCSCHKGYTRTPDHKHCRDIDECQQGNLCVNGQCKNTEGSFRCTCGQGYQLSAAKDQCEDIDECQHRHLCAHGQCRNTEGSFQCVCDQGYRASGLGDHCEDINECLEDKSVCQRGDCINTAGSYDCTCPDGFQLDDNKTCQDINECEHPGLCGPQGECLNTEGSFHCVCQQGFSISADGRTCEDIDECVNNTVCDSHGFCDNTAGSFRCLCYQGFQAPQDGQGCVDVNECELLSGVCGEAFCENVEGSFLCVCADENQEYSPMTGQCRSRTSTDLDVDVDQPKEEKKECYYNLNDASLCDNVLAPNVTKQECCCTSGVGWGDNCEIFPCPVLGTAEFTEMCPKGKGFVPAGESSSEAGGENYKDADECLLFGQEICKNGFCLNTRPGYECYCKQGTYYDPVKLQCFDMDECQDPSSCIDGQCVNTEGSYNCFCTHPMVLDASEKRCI
- T1 sequence (chain, as listed by the source limits assumed, chain 2 of 2): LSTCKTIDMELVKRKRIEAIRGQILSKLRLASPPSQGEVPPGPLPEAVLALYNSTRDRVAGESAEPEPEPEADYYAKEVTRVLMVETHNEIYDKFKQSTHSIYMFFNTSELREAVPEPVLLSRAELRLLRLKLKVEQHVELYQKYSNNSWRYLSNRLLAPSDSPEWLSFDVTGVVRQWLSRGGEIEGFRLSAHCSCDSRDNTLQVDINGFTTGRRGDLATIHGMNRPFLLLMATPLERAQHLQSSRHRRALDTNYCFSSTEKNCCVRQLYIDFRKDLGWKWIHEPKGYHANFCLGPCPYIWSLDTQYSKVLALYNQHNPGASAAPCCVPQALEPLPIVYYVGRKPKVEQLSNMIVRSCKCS
- assay-name: MSD-SET, solution equilibrium titration
- Method: MSD-SET assays were performed to measure affinities of the antibodies at equilibrium. Briefly, each test antibody was diluted 3-5 fold and samples were mixed with biotinylated antigen in a 48-well dish. The SET samples were equilibrated for 20-24 hours at room temperature. […] 2× Read Buffer was added, and signals from the labeled bound complexes were read with the use of QuickPlex™ SQ 120 instrument.
measure-name: pKd
Give bare numbers, as −log10 of the molar value.

Here is how some binders turned out for pKd.
binder: Ab29 (antibody, IgG4, V domains shown) VH: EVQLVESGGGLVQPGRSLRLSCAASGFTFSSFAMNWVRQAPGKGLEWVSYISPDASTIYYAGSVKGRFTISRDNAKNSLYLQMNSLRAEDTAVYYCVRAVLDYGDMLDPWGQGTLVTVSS VL: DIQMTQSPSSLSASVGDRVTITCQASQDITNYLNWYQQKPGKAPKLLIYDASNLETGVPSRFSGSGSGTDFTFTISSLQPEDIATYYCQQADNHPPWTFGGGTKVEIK
observed-measurement: 10.92

binder: Ab11 (antibody, IgG4, V domains shown) VH: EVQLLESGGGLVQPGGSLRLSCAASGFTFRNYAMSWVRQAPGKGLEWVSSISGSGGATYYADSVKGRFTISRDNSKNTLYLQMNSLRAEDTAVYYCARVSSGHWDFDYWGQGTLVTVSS VL: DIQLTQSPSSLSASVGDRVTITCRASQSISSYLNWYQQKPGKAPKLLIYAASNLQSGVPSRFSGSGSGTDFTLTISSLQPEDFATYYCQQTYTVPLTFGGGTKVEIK
observed-measurement: 8.92

For each of the binders below, state pKd.
1. Ab2 (antibody, human IgG4 S228P, kappa, V domains shown) VH: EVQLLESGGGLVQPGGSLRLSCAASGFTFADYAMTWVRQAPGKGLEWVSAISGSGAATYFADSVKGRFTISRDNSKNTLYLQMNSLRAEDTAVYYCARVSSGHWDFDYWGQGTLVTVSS VL: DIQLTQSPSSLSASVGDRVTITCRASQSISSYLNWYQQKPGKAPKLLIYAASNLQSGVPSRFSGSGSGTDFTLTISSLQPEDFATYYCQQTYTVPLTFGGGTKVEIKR
2. Ab30 (antibody, IgG4, V domains shown) VH: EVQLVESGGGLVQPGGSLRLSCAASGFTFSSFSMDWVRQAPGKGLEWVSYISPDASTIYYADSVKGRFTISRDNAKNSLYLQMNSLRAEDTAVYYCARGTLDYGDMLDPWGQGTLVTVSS VL: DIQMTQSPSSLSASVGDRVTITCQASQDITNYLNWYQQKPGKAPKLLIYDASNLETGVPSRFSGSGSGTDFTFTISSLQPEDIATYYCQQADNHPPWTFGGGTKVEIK
3. Ab12 (antibody, IgG4, V domains shown) VH: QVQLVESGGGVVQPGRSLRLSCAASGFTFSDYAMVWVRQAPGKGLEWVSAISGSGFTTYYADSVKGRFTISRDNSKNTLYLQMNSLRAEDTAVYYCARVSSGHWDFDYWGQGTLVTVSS VL: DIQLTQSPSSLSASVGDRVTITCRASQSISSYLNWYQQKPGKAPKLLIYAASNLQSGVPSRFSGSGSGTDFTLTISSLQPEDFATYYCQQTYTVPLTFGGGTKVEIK

1: 9.44; 2: 10.51; 3: 9.11
